Every entry's value here was drawn from paper PMC6556873.

assay_remarks: in vitro
Design: species or system HB2, HEK293
condition_description: human, ccd841 cells
readout_type: viability at 48 h, 10 µM (%)
One number for each entry, in %.

Please review the following examples before continuing.
>  <compound>
Cl.O=C(CCl)N1CCN(Cc2ccc3c(c2)CCO3)CC1

>  <units_label>
%

>  <measured>
58.5

$$$$
>  <compound>
O=C(CCl)Nc1nnn[nH]1

>  <units_label>
%

>  <measured>
102

$$$$
>  <compound>
N#Cc1cccc(NC(=O)CCl)c1

>  <units_label>
%

>  <measured>
19.1

$$$$
>  <compound>
Cc1nc(NC(=O)CCl)c(Cl)cc1Cl

>  <units_label>
%

>  <measured>
105

$$$$
>  <compound>
C=CC(=O)N1CC(O)CC1c1ccccc1C(F)(F)F (stereo not drawn)

>  <units_label>
%

>  <measured>
108

$$$$

Let us move to another entry and its viability at 48 h, 10 µM.
Report viability at 48 h, 10 µM for COc1ccc(Cl)cc1C(=O)NNC(=O)CCl please.
13.4
